tested on: EKVX NSCLC; assay: NCI tumour cell line growth inhibition, 48 h
Where a SMILES comes first, the peptide text is derived from it. [ ]: non-standard residue; d: D form. The star is where a group is joined. ξ: configuration not given here. ξF = NC(Cc1ccccc1)C(=O)O; Cbz = O=C(OCc1ccccc1)*; Aib = CC(C)(N)C(=O)O; NHNH2 = NN*
READOUT_NAME: TGI

1) Nc1nc2c3nc(Nc4ccccc4)sc3nc(=S)n2c2sc(Nc3ccccc3)nc12 | > 100 µM
2) Cc1ccccc1N=Nc1c(O)c(S(=O)(=O)O)cc2cc(S(=O)(=O)O)ccc12 | > 100 µM

Query: Tell me TGI reported for COc1ccc(C2N(c3ccc(F)cc3)C(=O)N3C(c4ccc(OC)cc4)N(c4ccc(F)cc4)C(=O)N23)cc1 (stereo not drawn)
Response: > 100 µM

Query: Tell me TGI reported for `O=C(/C=C/c1cc(Cl)cc(Cl)c1O)c1cccc(O)c1`
Response: > 100 µM

Query: Tell me TGI reported for COc1ccc(C(=O)C2=NON3OC23C(=O)c2ccc(OC)cc2)cc1 (stereo not drawn)
Response: 34.1 µM

Query: Tell me TGI reported for `CCOC(=O)/C(=C/N1CCN(C(=O)c2ccco2)C1=S)C(=O)c1ccccc1`
Response: 23.7 µM

Query: Tell me TGI reported for COC(=O)C(N)CCCC(N)C(=O)NC(C)C(=O)NC(CCC(=O)NCCNCCNc1c2ccccc2nc2cccc([N+](=O)[O-])c12)C(N)=O (stereo not drawn)
Response: 32.9 µM

Query: Tell me TGI reported for `COc1ccc2c(c1OC)C[C@@H]1c3c(cc4c(c3-2)OCO4)CCN1C`
Response: > 100 µM

Query: Tell me TGI reported for `COc1ccc(C/C(=N/O)C(=O)NCCc2cc(Br)c(OCCCN(C)C)c(Br)c2)cc1Br`
Response: 43 µM

Query: Tell me TGI reported for CCC(C)[C@H]1O[C@]2(CC[C@@H]1C)C[C@@H]1C[C@@H](C/C=C(\C)[C@@H](OC3C[C@H](OC)C(O[C@H]4C[C@H](OC)[C@@H](O)[C@H](C)O4)[C@H](C)O3)[C@@H](C)/C=C/C=C3\CO[C@@H]4[C@H](O)C(C)=C[C@@H](C(=O)O1)[C@]34O)O2 (stereo partly drawn)
Response: 15.1 µM

Query: Tell me TGI reported for `COc1cc(Nc2nc3cc(N)cc(N)c3nc2-c2ccccc2)cc(OC)c1OC`
Response: 47.4 µM

Query: Tell me TGI reported for `CCOC(=O)c1cc(C(=O)c2cc(OC)c(OC)c(OC)c2)n2ncccc12`
Response: > 100 µM

Query: Tell me TGI reported for `O=C1CSCc2sccc21`
Response: > 100 µM

Query: Tell me TGI reported for CC(C)(NC(=O)OCc1ccccc1)C(=O)NC(Cc1ccccc1)C(=O)NN (stereo not drawn) (Cbz-[Aib]-[ξF]-NHNH2)
Response: > 100 µM

Query: Tell me TGI reported for `CCCNC(=S)/N=C/c1c(O)cc(C)oc1=O`
Response: > 100 µM
